- System: NCI-H23
- protocol notes: NCI tumour cell line growth inhibition, 48 h
Active and inactive are the calls of the source. Cut-off read from the data, not from the text of the source: active = GI50 up to about 1.1 µM and inactive = higher.
I'd appreciate it if you could supply GI50 values for the items below.

In the examples that follow, each entry is paired with its recorded GI50.
CC(C)(C)OC(=O)NC(Cc1ccc(OCc2ccccc2)cn1)C(=O)N1CCSCC1 (stereo not drawn)
28.6 µM (inactive)
CN1CCN([C@H]2C[C@H]3[C@@H]4CC=C5C[C@@H](O)CC[C@]5(C)[C@H]4CC[C@]3(C)C2=O)CC1
> 100 µM (inactive)
CC1(C)COC(c2c(-c3ccccc3)noc2C[S+]([O-])c2ccccc2)=N1 (stereo not drawn)
32.3 µM (inactive)
CCN(CC)c1ncnc2c1ncn2CCNC(CO)(CO)CO
> 100 µM (inactive)

Quick request: GI50 for each listed item, please.
1. CS(=O)(=O)c1nc(Cl)c(Cl)c(C#N)c1Cl
2. COC(=O)[C@H](Cc1ccccc1)NC(=O)[C@H](Cc1ccccc1)NC(=O)[C@@H]1CCCN1C(=O)N[C@H]1C2C=CC(C2)C1C(=O)N1CCC[C@H]1C(=O)N[C@@H](C)C(=O)N[C@H](C(=O)OC)C(C)C (stereo partly drawn)
3. O=C(O)/C=C\C(=O)Nc1ccc2c(c1)-c1ccccc1C2
4. CC1=C(C)C(=O)c2c(cc3c4ccccc4ccn23)C1=O
5. C=C1CCCC(C)(C)C1CCC1(C)CCC(C(C)C(=O)OC)OO1 (stereo not drawn)
6. Cc1cc2c(C)nn(Cc3ccc(Cl)cc3Cl)c2c(C#N)c1C
7. CN1CC2(CCCCC2)C(O)C12C=CCCC2 (stereo not drawn)

Reply:
1.32 µM (inactive)
> 100 µM (inactive)
70.8 µM (inactive)
> 100 µM (inactive)
3.78 µM (inactive)
> 100 µM (inactive)
> 100 µM (inactive)

###

- Test system: HCT-116
- protocol notes: NCI tumour cell line growth inhibition, 48 h
The source made the active and inactive calls. Rule as the data show it: active = GI50 up to about 1.1 µM and inactive = higher.
Please state which outcome applies, choosing from 1 (active), -1 (inactive)

O=C(c1ccccc1)n1c(Cc2ccccc2)nc2cc(C34CC5CC(CC(C5)C3)C4)ccc21
-1

Query: Any idea what this test logged for CCCCCCC(O)C(O)CCC(O)C1CCC(CCCCC(O)CC2=CC(C)OC2=O)O1 (stereo unspecified) ?
Reply: -1

Query: # outcome recorded in this test, key = CC(C)(C)OC(=O)NC(Cc1ccc(OCc2ccccc2)cn1)C(=O)N1CCSCC1 (stereo unspecified)
Reply: -1

Query: Recorded call for CC1(C)OP(=O)(O)C=C1Sc1ccc([N+](=O)[O-])cc1[N+](=O)[O-] ?
Reply: -1

Query: // outcome(item) with item = CCCCCCCCCCCC(=O)N(CCCCCCCCCCC(=O)O)CC(O)C(O)C(OC1OC(CO)C(O)C(O)C1O)C(O)CO (stereo unspecified)
Reply: -1

Query: recorded result category for C=CCNC(=S)NC=C(C(N)=O)C(N)=O in this test
Reply: -1

Query: Tell me the assay call for O=c1oc2ccccc2c(O)c1C1c2c(c3ccccc3oc2=O)Oc2c1c(=O)oc1ccccc21 please.
Reply: -1

Query: Identify the outcome logged in this assay for the compound shown: OCc1cn(Cc2ccccc2)c2ccccc12
Reply: 1

Query: Which outcome did this test record for the compound CCCCC(C(=O)C(=O)Nc1ccccc1CC)C(=O)C(C)C (stereo unspecified) ?
Reply: -1

Query: Lab log entry: O=c1c2ccccc2[nH]c2c(O)ccc(O)c12 — outcome as called in the assay?
Reply: -1

Query: Call for entry CC1=NNC(=O)C1C1CC(c2c[nH]c3ccccc23)=NNC1=O (stereo unspecified) :
Reply: -1

Query: Assay outcome for Cc1cc(=O)oc2c3c(ccc12)OC(c1ccc(Br)cc1)CC3=O (stereo unspecified) : what was it?
Reply: -1

Query: For this compound, state the assay outcome: CCN(CC)C(=O)N1CN(c2ccccc2)C2(CCN(CCCC3(c4ccc(F)cc4)OCCO3)CC2)C1=O
Reply: -1

Query: // param item: CC(C)(C)OC(=O)C#CC[C@H]1CCCC1/C=C/C(O)=C1/C(=O)NC(CCCNC(=O)OC(C)(C)C)C1=O (stereo partly specified) ; yields the recorded call
Reply: -1

Query: Returns: the outcome recorded for N=C(c1ccccc1)N(O)C1CCCCC1 in this assay.
Reply: -1

Query: Hi team, can someone confirm the assay call for CCc1cc(=O)n(/C(C)=C/c2ccccc2)n1C ?
Reply: -1

Query: Please state the recorded outcome for this compound: N#C/N=C1/c2ccccc2/C(=N/C#N)c2cc(CO)ccc21
Reply: -1
